Test system: PHBPU
Assay: Post-emergence herbicidal action against PHBPU
Format: in vivo, Pharbitis purpurea
Conditions: Ipomoea purpurea, 504 h, dosage 20 g/ha
readout kind: pest or weed control at 20 g/ha
Quick note: unit goes after the number.

>>> measurement("Cc1c(C(=O)Nc2nnnn2C)ccc(C(F)(F)F)c1C(=O)NC1CC1 [Example 1-27]")
"90%"
>>> measurement("CCNC(=O)c1c(C(F)(F)F)ccc(C(=O)Nc2nnnn2CC)c1C [Example 2-26]")
"80%"
>>> measurement("CCc1c(C(=O)Nc2nnnn2C)ccc(C(F)(F)F)c1C(=O)NC1CC1 [Example 1-273]")
"80%"
>>> measurement("CCNC(=O)c1c(C(F)(F)F)ccc(C(=O)Nc2nnnn2C)c1C1CC1 [Example 1-287]")
"100%"
>>> measurement("COc1c(C(=O)Nc2nnnn2C)ccc(C(F)(F)F)c1C(=O)NC1CC1 [Example 1-58]")
"90%"

For each of the compounds below, state pest or weed control at 20 g/ha.
1. Cc1c(C(=O)Nc2nnnn2C)ccc(C(F)F)c1C(=O)NC(C)C [Example 1-346]
2. CCn1nnnc1NC(=O)c1ccc(Br)c(C(=O)NC2CC2)c1Cl [Example 2-179]
3. CCCNC(=O)c1c(Br)ccc(C(=O)Nc2nnnn2C)c1Cl [Example 1-184]
4. CCn1nnnc1NC(=O)c1ccc(C(F)(F)F)c(C(=O)NC(C)C)c1C [Example 2-33]

Return:
90%
80%
80%
90%

###

Field: Post-emergence action against ABUTH in %. Provide a value for each of the molecules that follow.
System: ABUTH
Experiment: Post-emergence herbicidal action against ABUTH
Type: in vivo, Abutilon theophrasti
Conditions: dosage 5 g/ha, visual assessment about 3 weeks after treatment vs untreated controls
One number for each entry, in %.

>>> measurement("CCNC(=O)c1c(C(F)(F)F)ccc(C(=O)Nc2nnco2)c1Cl")
80
>>> measurement("Cc1nnc(NC(=O)c2ccc(C(F)(F)F)c(C(=O)NC3CCC3)c2C)o1")
80
>>> measurement("COCCNC(=O)c1c(C(F)F)ccc(C(=O)Nc2nnc(C)o2)c1Cl")
80
>>> measurement("NC(=O)c1c(C(F)(F)F)ccc(C(=O)Nc2nnco2)c1Cl")
90
>>> measurement("CCn1nnnc1NC(=O)c1ccc(C(F)(F)F)c(C(=O)NCC(F)(F)F)c1Br")
80

With those in mind, consider the next molecule.
Enquiry: Find the recorded Post-emergence action against ABUTH in % belonging to Cc1c(C(=O)Nc2nnnn2C)ccc(C(F)(F)F)c1C(=O)NC(C)C1CC1 (stereo not drawn) and report it.
Return: 80

###

System: ALOMY
Assay: Pre-emergence herbicidal action against ALOMY
Format: in vivo, Alopecurus myosuroides
Conditions: Alopecurus myosuroides, pre-emergence, 504 h; 20 g/ha; scored visually after 3 weeks, 100% = plants have died, 0% = like control plants
For each record, write down the corresponding pest or weed control at 20 g/ha.
Answers are plain numbers, in %.

Consider the worked cases shown below.
>>> measurement("CC(C)NC(=O)c1c(Br)ccc(C(=O)Nc2nnnn2C)c1Cl")
90
>>> measurement("Cn1nnnc1NC(=O)c1ccc(Cl)c(C(=O)NC2CC2)c1Cl")
80
>>> measurement("Cc1nnc(NC(=O)c2ccc(C(F)(F)F)c(C(=O)NCC(F)(F)F)c2Cl)o1")
80
>>> measurement("CCNC(=O)c1c(C(F)(F)F)ccc(C(=O)Nc2nnnn2CC)c1Br")
80

Below: the item to evaluate.
Enquiry: Item Cn1nnnc1NC(=O)c1ccc(C(F)F)c(C(=O)NC2CC2)c1Br has what recorded pest or weed control at 20 g/ha?
Return: 80

###

Test system: AVEFA
Experiment: Pre-emergence herbicidal action against AVEFA
Format: in vivo, Avena fatua
Settings: 80 g/ha, pre-emergence
Source text: Seeds of monocotyledonous and dicotyledonous weed plants and crop plants are laid out in sandy loam soil in wood-fiber pots and covered with soil. […] The damage to the test plants is scored visually after a test period of 3 weeks by comparison with untreated controls (herbicidal activity in percent (%): 100% activity=the plants have died, 0% activity=like control plants). […]
Exercise: state measured Pre-emergence action against AVEFA in % for each of the compounds provided.
One number for each entry, in %.

Examples with answers:
>>> measurement("CSc1c(C(=O)Nc2nnnn2C)ccc(C(F)(F)F)c1C(=O)NCC1CC1 [Example 1-84]")
100
>>> measurement("CCn1nnnc1NC(=O)c1ccc(C(F)(F)F)c(C(=O)NCC(F)(F)F)c1Cl [Example 2-133]")
90
>>> measurement("Cn1nnnc1NC(=O)c1ccc(C(F)(F)F)c(C(=O)NCC(F)F)c1Cl [Example 1-134]")
90

Enquiry: Enter reported Pre-emergence action against AVEFA in % observed with AVEFA for CCn1nnnc1NC(=O)c1ccc(OC)c(C(=O)NC2CC2)c1Cl [Example 2-354]
Return: 90

###

For each record, write down the corresponding pest or weed control at 80 g/ha.
Tested on: ABUTH
Experiment: Pre-emergence herbicidal action against ABUTH
Assay type: in vivo, Abutilon theophrasti
Conditions: Abutilon theophrasti, 504 h, 80 g/ha, scored visually after 3 weeks vs untreated controls (100% = plants have died, 0% = like control plants)
Numbers only, in %.

>>> measurement("CNC(=O)c1c(C(F)F)ccc(C(=O)Nc2nnnn2C)c1C [Example 1-44]")
100
>>> measurement("CCn1nnnc1NC(=O)c1ccc(C(F)F)c(C(=O)NC2CC2)c1Br [Example 2-227]")
100
>>> measurement("CCNC(=O)c1c(C(F)F)ccc(C(=O)Nc2nnnn2C)c1OC [Example 1-73]")
100
>>> measurement("CCn1nnnc1NC(=O)c1ccc(Br)c(C(=O)NC2CC2)c1Cl [Example 2-179]")
100
>>> measurement("CCNC(=O)c1c(C(F)(F)F)ccc(C(=O)Nc2nnnn2C)c1C1CC1 [Example 1-287]")
100

Report pest or weed control at 80 g/ha for each item below.
1. CCCn1nnnc1NC(=O)c1ccc(C(F)(F)F)c(C(=O)NCC)c1C [Example 3-26]
2. CC(=O)NC(=O)c1c(C(F)(F)F)ccc(C(=O)Nc2nnnn2C)c1Cl [Example 1-337]
3. Cc1nnc(NC(=O)c2ccc(C(F)(F)F)c(C(N)=O)c2Cl)o1 [Example 6-253]
4. CNC(=O)c1c(C(F)F)ccc(C(=O)Nc2nnnn2C)c1Cl [Example 1-147]

Return:
1. 100
2. 100
3. 90
4. 90

###

Tested on: MATIN
Assay: Post-emergence herbicidal action against MATIN
Assay type: in vivo, Matricaria inodora
Details: Tripleurospermum inodorum, 504 h, dosage 20 g/ha
readout kind: pest or weed control at 20 g/ha (%)
Numbers only, in %.

>>> measurement("CCn1nnnc1NC(=O)c1ccc(C(F)F)c(C(=O)NC2CC2)c1Cl")
100
>>> measurement("CCn1nnnc1NC(=O)c1ccc(C(F)(F)F)c(C(=O)NC2CC2)c1C")
100
>>> measurement("CCNC(=O)c1c(C(F)F)ccc(C(=O)Nc2nnnn2CC)c1CC")
90
>>> measurement("Cn1nnnc1NC(=O)c1ccc(C(F)F)c(C(=O)NC2CC2)c1Cl")
100

Would you kindly look at the next entry?
Enquiry: For the molecule shown here, CCNC(=O)c1c(C(F)(F)F)ccc(C(=O)Nc2nnnn2C)c1SC , give the reported pest or weed control at 20 g/ha.
Return: 80

###

Tested on: ABUTH
Assay: Pre-emergence herbicidal action against ABUTH
Format: in vivo, Abutilon theophrasti
Conditions: Abutilon theophrasti, 504 h, 80 g/ha, scored visually after 3 weeks vs untreated controls (100% = plants have died, 0% = like control plants)
For each record, write down the corresponding pest or weed control at 80 g/ha.
Give bare numbers, in %.

These solved cases illustrate the format of a correct answer.
>>> measurement("Cn1nnnc1NC(=O)c1ccc(C(F)F)c(C(=O)NC2CC2)c1C1CC1")
100
>>> measurement("CC(=O)NC(=O)c1c(C(F)(F)F)ccc(C(=O)Nc2nnc(C)o2)c1Cl")
80
>>> measurement("Cn1nnnc1NC(=O)c1ccc(C(F)(F)F)c(C(=O)NC2CC2)c1Br")
100
>>> measurement("CNC(=O)c1c(OC)ccc(C(=O)Nc2nnnn2C)c1Cl")
100

Enquiry: Look up pest or weed control at 80 g/ha for this compound: CNC(=O)c1c(C(F)F)ccc(C(=O)Nc2nnnn2C)c1OC
Return: 100

###

I'd be grateful if you could share measured Pre-emergence action against POLCO in % for these entries.
Test system: POLCO
Assay: Pre-emergence herbicidal action against POLCO
Type: in vivo, Polygonum convolvulus
Conditions: dosage 80 g/ha
Kindly write the number and append the unit.

Worked examples, 5 compounds total:
>>> measurement("Cn1nnnc1NC(=O)c1ccc(C(F)(F)F)c(C(=O)NCC(F)F)c1Br")
"80%"
>>> measurement("CCn1nnnc1NC(=O)c1ccc(C(F)(F)F)c(C(=O)NCCSC)c1C")
"80%"
>>> measurement("CCCNC(=O)c1c(C(F)F)ccc(C(=O)Nc2nnnn2CC)c1Cl")
"90%"
>>> measurement("CCn1nnnc1NC(=O)c1ccc(C(F)(F)F)c(C(=O)NCCOC)c1Cl")
"90%"
>>> measurement("Cc1nnc(NC(=O)c2ccc(C(F)(F)F)c(C(=O)NC3CC3)c2Cl)o1")
"80%"

Hey, can you go through the list below and give me Pre-emergence action against POLCO in % for every item?
1. CCNC(=O)c1c(C(F)(F)F)ccc(C(=O)Nc2nnc(C)o2)c1Br
2. CCNC(=O)c1c(C(F)F)ccc(C(=O)Nc2nnc(C)o2)c1Br
3. CCn1nnnc1NC(=O)c1ccc(C(F)F)c(C(=O)NC)c1OC
4. CC(NC(=O)c1c(Br)ccc(C(=O)Nc2nnnn2C)c1Cl)C1CC1 (stereo not drawn)

Return:
1: 80%; 2: 80%; 3: 80%; 4: 80%
